tested on: EW-18; assay: cells; format: functional, cell-based; conditions: Homo sapiens;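 also: growth inhibition of EW-18 cells, read out by a cell viability assay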
Description: SANGER: Inhibition of human EW-18 cell growth in a cell viability assay.
I'd be grateful if you could share measured IC50 for these entries.

Need IC50 of `CNC(=O)c1cc(Oc2ccc(NC(=O)Nc3ccc(Cl)c(C(F)(F)F)c3)cc2)ccn1` , thanks. > 4 µM

Item: `Cc1cnc(-c2cnc(NCCNc3ccc(C#N)cn3)nc2-c2ccc(Cl)cc2Cl)[nH]1` > 2.56 µM

Item: `O=C(c1cc(Cc2n[nH]c(=O)c3ccccc23)ccc1F)N1CCN(C(=O)C2CC2)CC1` > 5 µM

Item: `CN(C)C/C=C/C(=O)Nc1cc2c(Nc3ccc(F)c(Cl)c3)ncnc2cc1O[C@H]1CCOC1` > 0.5 µM

Item: `CN(c1ncccc1CNc1nc(Nc2ccc3c(c2)CC(=O)N3)ncc1C(F)(F)F)S(C)(=O)=O` > 2.56 µM

Item: `CCOc1nc(NC(=O)Cc2cc(OC)ccc2OC)cc(N)c1C#N` > 10 µM

Item: COc1cc([C@@H]2c3cc4c(cc3[C@@H](O[C@@H]3O[C@@H]5CO[C@@H](C)O[C@H]5[C@H](O)[C@H]3O)[C@H]3COC(=O)[C@H]23)OCO4)cc(OC)c1O [ETOPOSIDE] > 16 µM

Item: `Cn1cc(C2=C(c3ccc(Cl)cc3Cl)C(=O)NC2=O)c2ccccc21` > 10 µM

###

I'd be grateful if you could share measured pIC50 for these entries.
tested on: CAMA-1; assay: cells; assay type: functional, cell-based, Homo sapiens; conditions: Homo sapiens, CAMA-1;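 also: growth inhibition of CAMA-1 cells, read out with a cell viability assay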
Description: SANGER: Inhibition of human CAMA-1 cell growth in a cell viability assay.
Conceptually, pIC50 converts a concentration in mol/L into minus its log10.

Need pIC50 of C=CCNC1=C2C[C@@H](C)C[C@H](OC)[C@H](O)[C@@H](C)/C=C(\C)[C@H](OC(N)=O)[C@@H](OC)/C=C\C=C(/C)C(=O)NC(=CC1=O)C2=O [TANESPIMYCIN] , thanks. 6.89

Item: COc1cc([C@@H]2c3cc4c(cc3[C@@H](O[C@@H]3O[C@@H]5CO[C@@H](C)O[C@H]5[C@H](O)[C@H]3O)[C@H]3COC(=O)[C@H]23)OCO4)cc(OC)c1O [ETOPOSIDE] 4.89

###

I'd be grateful if you could share measured pIC50 for these entries.
test system: HuO-3N1; test: cells; type: functional, cell-based, Homo sapiens; conditions: Homo sapiens, HuO-3N1;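 also: cell viability readout used to measure how strongly compounds suppress proliferation of human HuO-3N1 cells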
Description: SANGER: Inhibition of human HuO-3N1 cell growth in a cell viability assay.
Conceptually, pIC50 converts a concentration in mol/L into minus its log10.

Need pIC50 of `COc1ccc(-c2ccc3c(N4CCOC[C@@H]4C)nc(N4CCOC[C@@H]4C)nc3n2)cc1CO` , thanks. 6.42

Item: `COC(=O)CNC(=O)C(=O)OC` 3.15

###

system: SJSA-1; experiment: cells; type: functional, cell-based, Homo sapiens; settings: sjsa-1;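 also: growth inhibition of human SJSA-1 cells, read out through a cell viability measurement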
Description: SANGER: Inhibition of human SJSA-1 cell growth in a cell viability assay.
QUANTITY: IC50

Lab note: need IC50 with SJSA-1 for entry `Cc1cc([C@@H](C)Nc2ccccc2C(=O)O)c2nc(N3CCOCC3)cc(=O)n2c1` , please look it up. > 5.12 µM

###

I'd be grateful if you could share measured pIC50 for these entries.
tested on: LXF-289 cell line; assay: cells; format: functional, cell-based, Homo sapiens; conditions: Homo sapiens, LXF-289
Description: SANGER: Inhibition of human LXF-289 cell growth in a cell viability assay.
pIC50: −log10 of the molar value.

Need pIC50 of `CN(c1ncccc1CNc1nc(Nc2ccc3c(c2)CC(=O)N3)ncc1C(F)(F)F)S(C)(=O)=O` , thanks. < 5.59

Item: `COc1ccc(C2=N[C@@H](c3ccc(Cl)cc3)[C@@H](c3ccc(Cl)cc3)N2C(=O)N2CCNC(=O)C2)c(OC(C)C)c1` < 5.10

Item: `O=C(NOCC1CC1)c1ccc(F)c(F)c1Nc1ccc(I)cc1Cl` < 5.00

Item: `O=C(c1cc(Cc2n[nH]c(=O)c3ccccc23)ccc1F)N1CCN(C(=O)C2CC2)CC1` < 5.30

###

tested on: TE-11; test: cells; assay type: functional, cell-based, Homo sapiens; conditions: Homo sapiens, TE-11
Description: SANGER: Inhibition of human TE-11 cell growth in a cell viability assay.
QUANTITY: IC50

Need IC50 of CO[C@H]1C[C@@H]2CC[C@@H](C)[C@@](O)(O2)C(=O)C(=O)N2CCCC[C@H]2C(=O)O[C@H]([C@H](C)C[C@@H]2CC[C@@H](O)[C@H](OC)C2)CC(=O)[C@H](C)/C=C(\C)[C@@H](O)[C@@H](OC)C(=O)[C@H](C)C[C@H](C)/C=C/C=C/C=C/1C [SIROLIMUS] , thanks. 77.2 nM

Item: C=CCc1cccc(/C=N/NC(=O)CN2CCN(Cc3ccccc3)CC2)c1O [PAC-1] > 2560 nM

Item: CCC1=C[C@@H]2CN(C1)Cc1c([nH]c3ccccc13)[C@@](C(=O)OC)(c1cc3c(cc1OC)N(C)[C@H]1[C@@](O)(C(=O)OC)[C@H](OC(C)=O)[C@]4(CC)C=CCN5CC[C@]31[C@@H]54)C2 [VINORELBINE] 9.16 nM

Item: Cc1cc(Nc2cc(N3CCN(C)CC3)nc(Sc3ccc(NC(=O)C4CC4)cc3)n2)n[nH]1 [TOZASERTIB] 150 nM

Item: `CC(=O)O[C@@H]1[C@@H](OC(C)=O)[C@@H](O)[C@H](Oc2c(-c3ccc(O)cc3)oc3cc(O)cc(O)c3c2=O)O[C@H]1C` > 10000 nM

Item: CN(Cc1cnc2nc(N)nc(N)c2n1)c1ccc(C(=O)N[C@@H](CCC(=O)O)C(=O)O)cc1 [METHOTREXATE] > 200 nM

Item: Nc1ccn([C@@H]2O[C@H](CO)[C@@H](O)[C@@H]2O)c(=O)n1 [CYTARABINE] > 2000 nM

Item: CN(C)C/C=C/C(=O)Nc1cc2c(Nc3ccc(F)c(Cl)c3)ncnc2cc1O[C@H]1CCOC1 [AFATINIB] > 500 nM

Item: O=C(c1cc(Cc2n[nH]c(=O)c3ccccc23)ccc1F)N1CCN(C(=O)C2CC2)CC1 [OLAPARIB] > 5000 nM

###

system: TGW; assay: cells; type: functional, cell-based; details: Homo sapiens
Description: SANGER: Inhibition of human TGW cell growth in a cell viability assay.
pIC50: −log10 of the molar value.
QUANTITY: pIC50

Need pIC50 of `CC1=C2C[C@H]3[C@@H](CC=C4C[C@@H](O)CC[C@@]43C)[C@@H]2CC[C@]12O[C@@H]1C[C@H](C)CN[C@H]1[C@H]2C` , thanks. < 4.80

Item: `CN(c1ncccc1CNc1nc(Nc2ccc3c(c2)CC(=O)N3)ncc1C(F)(F)F)S(C)(=O)=O` < 5.59

Item: `C=CCc1cccc(/C=N/NC(=O)CN2CCN(Cc3ccccc3)CC2)c1O` < 5.59

Item: `CCC1=C[C@@H]2CN(C1)Cc1c([nH]c3ccccc13)[C@@](C(=O)OC)(c1cc3c(cc1OC)N(C)[C@H]1[C@@](O)(C(=O)OC)[C@H](OC(C)=O)[C@]4(CC)C=CCN5CC[C@]31[C@@H]54)C2` < 7.19

Item: `CNC(=O)c1cc(Oc2ccc(NC(=O)Nc3ccc(Cl)c(C(F)(F)F)c3)cc2)ccn1` < 5.40

Item: `COc1ccc(-c2ccc3c(N4CCOC[C@@H]4C)nc(N4CCOC[C@@H]4C)nc3n2)cc1CO` < 5.70

Item: `O=c1cc(-c2cccc3c2Sc2ccccc2S3)oc(N2CCOCC2)c1` < 5.00

Item: `CN1CCN(CCOc2cc(OC3CCOCC3)c3c(Nc4c(Cl)ccc5c4OCO5)ncnc3c2)CC1` < 5.70

###

tested on: H9; experiment: cells; type: functional, cell-based; conditions: Homo sapiens
Description: SANGER: Inhibition of human H9 cell growth in a cell viability assay.
QUANTITY: IC50 (nM)
Your answer should be a plain number; it is taken to be in nM.

Lab note: need IC50 with H9 for entry `O=C(NOCC1CC1)c1ccc(F)c(F)c1Nc1ccc(I)cc1Cl` , please look it up. 22.8

Item: `COc1ccc(-c2ccc3c(N4CCOC[C@@H]4C)nc(N4CCOC[C@@H]4C)nc3n2)cc1CO` 66.9

Item: `C=CCNC1=C2C[C@@H](C)C[C@H](OC)[C@H](O)[C@@H](C)/C=C(\C)[C@H](OC(N)=O)[C@@H](OC)/C=C\C=C(/C)C(=O)NC(=CC1=O)C2=O` 43.7

###

test system: HCC70; test: cells; assay type: functional, cell-based, Homo sapiens; conditions: Homo sapiens, HCC70;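 also: cell viability assay measuring how strongly the compound suppresses proliferation of HCC70 cells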
Description: SANGER: Inhibition of human HCC70 cell growth in a cell viability assay.
pIC50: −log10 of the molar value.
QUANTITY: pIC50

Need pIC50 of Cn1cncc1[C@@](N)(c1ccc(Cl)cc1)c1ccc2c(c1)c(-c1cccc(Cl)c1)cc(=O)n2C [TIPIFARNIB] , thanks. 5.98

Item: CN(c1ncccc1CNc1nc(Nc2ccc3c(c2)CC(=O)N3)ncc1C(F)(F)F)S(C)(=O)=O [PF-00562271] < 5.59

Item: COc1ccc(-c2ccc3c(N4CCOC[C@@H]4C)nc(N4CCOC[C@@H]4C)nc3n2)cc1CO [AZD-8055] < 5.70

Item: O=c1cc(-c2cccc3c2Sc2ccccc2S3)oc(N2CCOCC2)c1 [KU-55933] < 5.00

Item: Cn1cc(C2=C(c3ccc(Cl)cc3Cl)C(=O)NC2=O)c2ccccc21 [SB-216763] < 5.00

Item: C=CCNC1=C2C[C@@H](C)C[C@H](OC)[C@H](O)[C@@H](C)/C=C(\C)[C@H](OC(N)=O)[C@@H](OC)/C=C\C=C(/C)C(=O)NC(=CC1=O)C2=O [TANESPIMYCIN] 6.04

Item: Cc1cnc(-c2cnc(NCCNc3ccc(C#N)cn3)nc2-c2ccc(Cl)cc2Cl)[nH]1 [LADUVIGLUSIB] < 5.59

Item: C[C@]1(O)C[C@@H](c2nc(-c3ccc4ccc(-c5ccccc5)nc4c3)c3c(N)nccn32)C1 [LINSITINIB] < 5.59

Item: Nc1ccn([C@@H]2O[C@H](CO)[C@@H](O)[C@@H]2O)c(=O)n1 [CYTARABINE] < 5.70

Item: O=C(c1cc(Cc2n[nH]c(=O)c3ccccc23)ccc1F)N1CCN(C(=O)C2CC2)CC1 [OLAPARIB] < 5.30
